system: Fibrinogen (Alexa647-labelled); test: fibrinogen binders on compound microarrays, profiling panel, artefact control for SMM control-protein annotation, biochemical, small-molecule microarray, 635/667 nm fluorescence (AID 1131); details: fibrinogen-A647 binding fluorescence, higher = more signal;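 also: z-score merges 667 nm fluorescence with per-spot signal-to-noise over triplicate slides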
Entries and their measured composite z-score follow.
Enter a number only.

These recorded examples may help you get a feel for the data.
{"columns": ["COMPOUND", "TEST_SYSTEM", "composite z-score"],
 "data": [
  ["O=C1CCCC2OC12C(O)CCc1ccccc1 (stereo unspecified)", "Fibrinogen (Alexa647-labelled)", 0.558],
  ["O[C@@H](Cc1ccccc1)[C@H]1C2C=CCCC(c3ccccc3)=C2CN1Cc1cccc(Cl)c1 (stereo partly specified)", "Fibrinogen (Alexa647-labelled)", 0.43],
  ["COc1ccccc1CN1C(=O)c2ccccc2[C@@]2(Cc3ccccc3N(C(C)C)C2=O)[C@@H]1c1ccc(CO)cc1", "Fibrinogen (Alexa647-labelled)", -0.586],
  ["NC(=O)NCC#Cc1ccc2c(c1)[C@]1(C(=O)N2)[C@H](c2ccc(O)cc2)N2[C@H](c3ccccc3)[C@H](c3ccccc3)OC(=O)[C@H]2[C@@H]1C(=O)N1CCCCCCC1", "Fibrinogen (Alexa647-labelled)", 0.161],
  ["O=C1[C@H]2[C@H]3[C@H](O)[C@H](O)CC(=NO[C@@H]4O[C@H](CO)[C@@H](O)[C@H](O)[C@H]4O)[C@@H]3CC[C@H]2C(=O)N1Cc1ccccc1", "Fibrinogen (Alexa647-labelled)", -0.247]
]}

Now for the compound whose composite z-score we want.
Measured composite z-score, CN1C(=O)C2C(C1=O)C1C=C(CCCO)C2C(c2ccc(CN3CCCC3)cc2)N1C (stereo unspecified) : -1.58

====

Below, each entry is listed with its recorded composite z-score.
test: small-molecule binders of probe aLefty1, primary screen, biochemical, small-molecule microarray, 635/667 nm fluorescence (AID 1153); details: higher = more signal;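 also: score merges spot fluorescence with signal-to-noise ratio from the scanned slide images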

These solved cases illustrate the format of a correct answer.
{"columns": ["COMPOUND", "composite z-score"],
 "data": [
  ["COCCCNC(=O)[C@@]1(C)c2ccccc2C(=O)N(Cc2ccc(OC(F)(F)F)cc2)[C@H]1c1ccc(CO)cc1", -0.191],
  ["COC(=O)[C@@H]1CC[C@H](C)[C@@H](c2ccc(C)cc2)N1C(=O)c1ccc(C=NOC(C)CN2CCCCc3nc(C)c(C)cc32)cc1 (stereo not given in full)", -0.0449],
  ["CCCNC(=O)OC[C@H]1O[C@H](CCON=C2[C@H]3CCn4c(=O)n(-c5ccccc5)c(=O)n4[C@H]3[C@H](O)[C@@H]3O[C@H]23)C=C[C@@H]1Oc1ccc(OC)cc1", 0.198]
]}

Record Cc1cc2c(nc1C)CCCN2CC(O)CN1CCN(C)CC1 (stereo not given) . Reported composite z-score: 0.0733

get_value(item= `CC(C)[C@@H](OCc1ccccc1)[C@H](C)C=NO[C@H](C)c1cn([C@H](CO)Cc2ccccc2)nn1` , readout=composite z-score) returns -0.448

====

Recorded composite z-score, one value per entry.
biological target: Follistatin-related protein 3 (Homo sapiens) (UniProt O95633); test: FSTL3 binders on small-molecule microarrays, primary screen, biochemical, small-molecule microarray, 635 nm fluorescence (AID 1105); conditions: FSTL3 binding, higher = more signal;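 also: score merges emission near 667 nm and signal to noise per printed spot across three slides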
Sequence (O95633 whole entry, looked up): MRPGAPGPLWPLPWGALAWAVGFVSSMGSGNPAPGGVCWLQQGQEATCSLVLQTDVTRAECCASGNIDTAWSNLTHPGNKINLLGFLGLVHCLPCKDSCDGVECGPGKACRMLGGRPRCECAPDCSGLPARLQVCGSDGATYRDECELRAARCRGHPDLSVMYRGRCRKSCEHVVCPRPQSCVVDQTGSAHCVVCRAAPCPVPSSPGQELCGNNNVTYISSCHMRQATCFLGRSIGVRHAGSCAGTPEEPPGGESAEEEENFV
Could you keep your reply to the number by itself?

{"columns": ["STRUCTURE_SMILES", "QUANTITY_MEASURED", "ASSAY_RESULT"],
 "data": [
  ["CCc1cc2c(nc1CC)CCN(CCC(C)=NO[C@@H](C)c1cc(-c3c(C)cc(C)cc3C)no1)C2", "composite z-score", -0.473],
  ["CCOC(=O)CCN1C(=O)[C@H]2[C@H]3[C@H](O)[C@H](O)CC(=O)[C@H]3CC[C@H]2C1=O", "composite z-score", 0.565]
]}

For `CC(C)(C)OC(=O)CC[C@]1(C(N)=O)COC(c2ccc(OCCCO)cc2)=N1` the molecule record lists composite z-score as 0.278
